Read-out: Epidermal growth factor receptor (EGFR), EGFR (gene 1956)
Experiment: BSK_hDFCGF_EGFR: BioMAP Diversity Plus: hDFCGF Assay for Epidermal growth factor receptor (EGFR) Biomarker Activity (AID 2283057)
Details: primary human foreskin fibroblasts; actives raise or lower the signal
Method: BSK_hDFCGF is a cell-based, multiplexed-readout assay that uses foreskin fibroblast, a human skin primary cell, with measurements taken at 24 hours after chemical dosing in a 96-well plate.BSK_hDFCGF_EGFR is an assay component measured in the BSK_hDFCGF assay. It measures EGFR antibody related to regulation of gene expression using ELISA technology.Data from the assay component BSK_hDFCGF_EGFR was analyzed into 1 assay endpoint. […]
Calls of active or inactive are those of the source. Rule for the calls: active = hit-call score of the fitted dose curve at least 0.9, where 1 is the maximum; inactive = score below 0.9.

>  <compound>
O=C1c2c(O)cccc2Cc2cccc(O)c21

>  <outcome>
inactive

$$$$
>  <compound>
C=CCc1ccc(OC)c(OC)c1

>  <outcome>
inactive

$$$$
>  <compound>
CC(C)(C)c1ccccc1

>  <outcome>
inactive

$$$$
>  <compound>
CC(N)=O

>  <outcome>
inactive

$$$$
>  <compound>
CC(COCC(C)OC(=O)c1ccccc1)OC(=O)c1ccccc1 (configuration not stated)

>  <outcome>
inactive

$$$$
>  <compound>
Oc1ccc(O)cc1

>  <outcome>
inactive

$$$$
>  <compound>
CCN(CC)CCOc1ccc(C(=C(Cl)c2ccccc2)c2ccccc2)cc1

>  <outcome>
inactive

$$$$
>  <compound>
C/C=C/C=C/C(=O)O

>  <outcome>
inactive

$$$$
>  <compound>
O=Cc1ccccc1C=O

>  <outcome>
inactive

$$$$
>  <compound>
NC1CCCCC1

>  <outcome>
inactive

$$$$
>  <compound>
COC(=O)CCC(=O)OC

>  <outcome>
inactive

$$$$
>  <compound>
CCCC[C@H]1CN(CC2CCOCC2)C(=O)OC12CCN(C1(C)CCN(C(=O)c3c(C)ncnc3C)CC1)CC2

>  <outcome>
inactive

$$$$

====

Assay: APR_HepG2_P-H2AX_24hr: Apredica 24-hour HepG2 Assay for H2AX Phosphorylation (AID 2282920)
Conditions: high-content imaging, actives raise or lower the signal
Activity calls are given as the source filed them. Rule for the calls: active = hit-call score of the fitted dose curve at least 0.9, where 1 is the maximum; inactive = score below 0.9.
Outcomes: class 1 for active, class 0 for inactive

>  <compound>
Nc1nc(Cl)nc2c1ncn2[C@H]1C[C@H](O)[C@@H](CO)O1

>  <group>
class 1

$$$$
>  <compound>
CS(=O)(=O)c1ccc([C@@H](C[C@H]2CCC(=O)C2)C(=O)Nc2cnccn2)cc1Cl

>  <group>
class 0

$$$$
>  <compound>
O=Cc1ccccc1C=O

>  <group>
class 0

$$$$
>  <compound>
CC1=C(C)S(=O)(=O)CCS1(=O)=O

>  <group>
class 0

$$$$
>  <compound>
O=[Si]=O

>  <group>
class 0

$$$$
>  <compound>
CCCCC(CC)COP(=O)(OCC(CC)CCCC)OCC(CC)CCCC (centres undefined)

>  <group>
class 1

$$$$
>  <compound>
CCCCC(CC)CO (centres undefined)

>  <group>
class 0

$$$$
>  <compound>
Cc1ccc(C(C)(C)C)c(O)c1

>  <group>
class 1

$$$$
>  <compound>
CCCCCCC(CCCCCCCCCCC(=O)OCC(COC(C)=O)OC(C)=O)OC(C)=O (centres undefined)

>  <group>
class 0

$$$$
>  <compound>
COc1ccc(OC(F)(F)F)cc1CN[C@H]1CCCN[C@H]1c1ccccc1

>  <group>
class 1

$$$$
>  <compound>
Nc1nc(=S)c2[nH]cnc2[nH]1

>  <group>
class 0

$$$$
>  <compound>
Cc1occc(=O)c1O

>  <group>
class 0

$$$$
>  <compound>
NC1CCCCC1

>  <group>
class 0

$$$$
>  <compound>
CCOCCOCCO

>  <group>
class 0

$$$$
